target: SMARCA2 (Homo sapiens, UniProt P51531); construct: endogenous in cells; host or cells: HT1080 (CRISPR HiBiT knock-in clone, generated in house); assay: SMARCA2 HiBiT degradation assay (cellular); assay type: cell-based; conditions: A549, 6 h incubation; Emax = amount of residual protein remaining in the cell following compound treatment; table head names A549
Sequence (P51531 whole entry): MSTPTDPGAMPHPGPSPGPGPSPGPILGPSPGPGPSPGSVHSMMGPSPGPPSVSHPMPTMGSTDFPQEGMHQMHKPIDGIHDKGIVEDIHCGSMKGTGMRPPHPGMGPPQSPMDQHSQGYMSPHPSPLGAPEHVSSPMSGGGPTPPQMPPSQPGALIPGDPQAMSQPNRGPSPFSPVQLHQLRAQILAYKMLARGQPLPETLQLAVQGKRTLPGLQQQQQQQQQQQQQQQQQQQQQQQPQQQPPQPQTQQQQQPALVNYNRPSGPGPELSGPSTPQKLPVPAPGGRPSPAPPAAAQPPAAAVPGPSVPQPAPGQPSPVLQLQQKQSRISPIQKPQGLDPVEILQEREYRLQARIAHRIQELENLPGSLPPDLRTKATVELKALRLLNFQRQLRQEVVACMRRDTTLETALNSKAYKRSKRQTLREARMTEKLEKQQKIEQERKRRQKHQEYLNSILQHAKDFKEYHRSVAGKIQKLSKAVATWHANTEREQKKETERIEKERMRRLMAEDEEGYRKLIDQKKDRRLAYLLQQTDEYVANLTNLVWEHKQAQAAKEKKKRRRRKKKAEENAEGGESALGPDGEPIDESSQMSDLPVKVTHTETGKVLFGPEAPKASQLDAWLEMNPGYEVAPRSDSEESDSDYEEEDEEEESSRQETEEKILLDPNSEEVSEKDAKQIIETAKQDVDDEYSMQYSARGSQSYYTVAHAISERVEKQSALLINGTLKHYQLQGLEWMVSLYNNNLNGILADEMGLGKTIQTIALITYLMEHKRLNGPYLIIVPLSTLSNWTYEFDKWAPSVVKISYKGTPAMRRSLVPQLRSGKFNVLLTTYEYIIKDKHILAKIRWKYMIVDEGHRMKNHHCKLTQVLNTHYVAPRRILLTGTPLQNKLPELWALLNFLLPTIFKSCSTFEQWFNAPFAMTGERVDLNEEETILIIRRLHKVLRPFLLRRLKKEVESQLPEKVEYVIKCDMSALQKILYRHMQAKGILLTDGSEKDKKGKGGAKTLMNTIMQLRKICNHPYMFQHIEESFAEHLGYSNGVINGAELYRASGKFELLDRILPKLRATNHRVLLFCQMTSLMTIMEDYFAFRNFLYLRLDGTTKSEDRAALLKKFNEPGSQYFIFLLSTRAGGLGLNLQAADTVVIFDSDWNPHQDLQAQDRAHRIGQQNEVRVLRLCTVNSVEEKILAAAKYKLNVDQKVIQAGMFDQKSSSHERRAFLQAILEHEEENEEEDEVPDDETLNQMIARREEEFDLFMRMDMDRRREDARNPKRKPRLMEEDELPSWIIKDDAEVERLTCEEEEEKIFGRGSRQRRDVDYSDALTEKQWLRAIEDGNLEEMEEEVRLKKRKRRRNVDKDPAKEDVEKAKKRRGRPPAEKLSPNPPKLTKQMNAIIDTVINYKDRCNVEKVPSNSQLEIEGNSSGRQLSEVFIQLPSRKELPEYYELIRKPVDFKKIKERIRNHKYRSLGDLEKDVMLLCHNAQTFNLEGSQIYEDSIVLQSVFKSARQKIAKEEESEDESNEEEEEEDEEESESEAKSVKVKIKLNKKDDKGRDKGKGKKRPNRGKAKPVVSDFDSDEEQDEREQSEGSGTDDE
Entries whose Emax is below 40% take Fulfilled; entries at or above 40% take Not fulfilled.

Nc1nnc(-c2ccccc2O)cc1N1CC2CCC(C1)N2c1cccc(OCCN2CCN(C(=O)CCC(=O)N3CCC(Nc4cccc5c4C(=O)N(C4CCC(=O)NC4=O)C5=O)CC3)CC2)c1 (racemic); Not fulfilled

Query: Field: below-cutoff. Rule: recorded Emax strictly less than 40%. Subject: Nc1nnc(-c2ccccc2O)cc1OC1CCCN(c2ccc(OCCN3CCN(C(=O)CCCCCCCCCCCCC(=O)N4CCN(c5ccc(NC6CCC(=O)NC6=O)cc5)CC4)CC3)cc2)C1 (centres unmarked)
Result: Not fulfilled

Query: Field: below-cutoff. Rule: recorded Emax strictly less than 40%. Subject: Nc1nnc(-c2ccccc2O)cc1N1CCC(C(=O)N2CC3(CN(C(=O)CCCN4CCC(c5ccc(OC6CCC(=O)NC6=O)cc5)CC4)C3)C2)(c2ccccc2)CC1 (centres unmarked)
Result: Fulfilled

Query: Field: below-cutoff. Rule: recorded Emax strictly less than 40%. Subject: Nc1nnc(-c2ccccc2O)cc1N1CCN(c2cccc(CN3CCN(C(=O)C4CCN(c5ccc6c(c5)C(=O)N(C5CCC(=O)NC5=O)C6=O)CC4)CC3)c2)C2(CC2)C1 (centres unmarked)
Result: Fulfilled

----------
target: SMARCA2 (Homo sapiens, UniProt P51531); construct: endogenous in cells; host or cells: HT1080 (CRISPR HiBiT knock-in clone, generated in house); assay: SMARCA2 HiBiT degradation assay (cellular); assay type: cell-based; details: A549, 6 h incubation; Emax = amount of residual protein remaining in the cell following compound treatment; table head names A549
Entries whose Emax is below 40% take 1.0; entries at or above 40% take 0.0.

Recorded results for 4 compounds are shown here.
CC(Nc1cccc2c1C(=O)N(C1CCC(=O)NC1=O)C2=O)c1cn(CCCCCCCCCN2CCN(c3ccc(N4CCC[C@H](Oc5cc(-c6ccccc6O)nnc5N)C4)cc3)CC2)nn1 (mixture of isomers) [Example 201]; 1.0
Nc1nnc(-c2ccccc2O)cc1N1CC2CCC(C1)N2c1cccc(OCCN2CCN(C(=O)C3CCN(c4cccc5c4C(=O)N(C4CCC(=O)NC4=O)C5=O)CC3)CC2)c1 (racemic) [Example 13]; 0.0
CC(Nc1cccc2c1C(=O)N(C1CCC(=O)NC1=O)C2=O)c1cn(CCCCCCCCCN2CCN(c3ccc(N4CCCC(Oc5cc(-c6ccccc6O)nnc5N)C4)cc3)CC2)nn1 (centres unmarked) [Example 89]; 1.0
Nc1nnc(-c2ccccc2O)cc1N1CC(Oc2cccc(CN3CCN(C(=O)CN4CCC(c5ccc(NC6CCC(=O)NC6=O)cc5)CC4)CC3)c2)C1 (racemic) [Example 156]; 1.0

Query: Field: below-cutoff. Rule: recorded Emax strictly less than 40%. Subject: Nc1nnc(-c2ccccc2O)cc1N1CCN(c2cccc(OCCN3CCN(C(=O)CCCCCCNc4cccc5c4C(=O)N(C4CCC(=O)NC4=O)C5=O)CC3)c2)C2(CC2)C1 (centres unmarked) [Example 5]
Result: 0.0

Query: Field: below-cutoff. Rule: recorded Emax strictly less than 40%. Subject: CCC(Nc1cccc2c1C(=O)N(C1CCC(=O)NC1=O)C2=O)c1cn(CCCCCCCCCN2CCN(c3ccc(N4CCC[C@H](Oc5cc(-c6ccccc6O)nnc5N)C4)cc3)CC2)nn1 (mixture of isomers) [Example 203]
Result: 1.0

Query: Field: below-cutoff. Rule: recorded Emax strictly less than 40%. Subject: Nc1nnc(-c2ccccc2O)cc1N1CCN(c2cccc(CN3CCN(C(=O)CC4CCN(c5ccc6c(c5)C(=O)N(C5CCC(=O)NC5=O)C6=O)CC4)CC3)c2)C2(CC2)C1 (centres unmarked) [Example 130]
Result: 0.0

Query: Field: below-cutoff. Rule: recorded Emax strictly less than 40%. Subject: Nc1nnc(-c2ccccc2O)cc1N1CC2CCC(C1)N2c1cccc(OCCN2CCN(CCC3CCN(c4ccc5c(c4)C(=O)N(C4CCC(=O)NC4=O)C5=O)CC3)CC2)c1 (racemic) [Example 34]
Result: 1.0

Query: Field: below-cutoff. Rule: recorded Emax strictly less than 40%. Subject: Nc1nnc(-c2ccccc2O)cc1N1CC2CCC(C1)N2c1cccc(CN2CCN(CCOC3CCN(c4ccc5c(c4)C(=O)N(C4CCC(=O)NC4=O)C5=O)CC3)CC2)c1 (racemic) [Example 55]
Result: 1.0

Query: Field: below-cutoff. Rule: recorded Emax strictly less than 40%. Subject: Nc1nnc(-c2ccccc2O)cc1N1CCC(NC(=O)CN2CCC(c3ccc(OC4CCC(=O)NC4=O)cc3)CC2)(c2ccccc2)CC1 (centres unmarked) [Example 108]
Result: 0.0
